target.of.assay: rM1 (Rattus norvegicus, UniProt P08482)
Construct: host or cells: CHO-K1
Sequence (P08482 whole entry): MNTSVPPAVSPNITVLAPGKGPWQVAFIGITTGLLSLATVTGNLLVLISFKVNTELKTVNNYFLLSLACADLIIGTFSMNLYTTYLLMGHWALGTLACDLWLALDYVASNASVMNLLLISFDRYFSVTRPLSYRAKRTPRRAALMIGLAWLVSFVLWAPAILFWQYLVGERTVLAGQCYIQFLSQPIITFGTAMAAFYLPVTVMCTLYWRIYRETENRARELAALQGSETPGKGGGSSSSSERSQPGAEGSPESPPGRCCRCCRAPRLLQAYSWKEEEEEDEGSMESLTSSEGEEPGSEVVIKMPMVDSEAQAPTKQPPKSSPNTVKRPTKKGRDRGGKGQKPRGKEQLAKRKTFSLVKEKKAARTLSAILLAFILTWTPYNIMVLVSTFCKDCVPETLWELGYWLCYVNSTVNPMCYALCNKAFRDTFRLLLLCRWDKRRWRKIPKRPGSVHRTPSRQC
assay.info: Calcium mobilization assay in CHO-K1 cells stably expressing rat M1 (low throughput, Flexstation II)
Type: cell-based
details: RM1, read-out: Efficacy (% Max ACh)
For each record, write down the corresponding Emax.
Quick reminder: number only, in %, skip the unit.

Dear colleague, I am looking for the recorded Emax of the following compound: CCOC(=O)N1C2CCC1CC(N1CCC[C@@H](NC(=O)c3ccc(F)c(C)c3)C1)C2 (stereo partly shown) [Example 8]
93

Dear colleague, I am looking for the recorded Emax of the following compound: CCOC(=O)N1C2CCC1CC(N1CCC[C@@H](NC(=O)c3cc(F)cc(F)c3)C1)C2 (stereo partly shown) [Example 10]
90

Dear colleague, I am looking for the recorded Emax of the following compound: CCOC(=O)N1C2CCC1CC(N1CCC[C@@H](NC(=O)c3ccccc3C)C1)C2 (stereo partly shown) [Example 2]
94

Dear colleague, I am looking for the recorded Emax of the following compound: CCOC(=O)N1C2CCC1CC(N1CCC[C@@H](NC(=O)c3ccccc3)C1)C2 (stereo partly shown) [Example 3]
93

###

target.of.assay: hM1 (Homo sapiens)
Construct: host or cells: CHO-K1
Sequence (P11229 whole entry): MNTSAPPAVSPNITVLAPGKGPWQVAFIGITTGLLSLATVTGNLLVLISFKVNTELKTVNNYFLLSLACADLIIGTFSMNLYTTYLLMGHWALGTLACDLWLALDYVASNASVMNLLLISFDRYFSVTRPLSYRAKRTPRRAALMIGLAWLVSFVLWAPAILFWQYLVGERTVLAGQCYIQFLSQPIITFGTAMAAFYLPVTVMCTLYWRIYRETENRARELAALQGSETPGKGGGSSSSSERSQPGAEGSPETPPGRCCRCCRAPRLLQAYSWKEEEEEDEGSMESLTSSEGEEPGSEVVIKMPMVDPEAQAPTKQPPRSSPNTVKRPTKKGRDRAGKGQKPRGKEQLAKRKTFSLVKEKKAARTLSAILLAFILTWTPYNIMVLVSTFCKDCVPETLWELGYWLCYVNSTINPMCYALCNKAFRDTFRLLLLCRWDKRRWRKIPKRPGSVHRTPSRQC
assay.info: Calcium mobilization assay in CHO-K1 cells stably expressing human M1 (high throughput, FDSS 6000)
Type: cell-based
details: HM1, read-out: Efficacy (% Max ACh)
For each record, write down the corresponding Emax.
Quick reminder: number only, in %, skip the unit.

Dear colleague, I am looking for the recorded Emax of the following molecule: CCOC(=O)N1C2CCC1CC(N1CC[C@@H](NC(=O)c3ccccc3C)C1)C2 (stereo partly shown) [Example 16]
57

Dear colleague, I am looking for the recorded Emax of the following molecule: CCOC(=O)N1C2CCC1CC(N1CCC[C@@H](NC(=O)c3c(F)cccc3F)C1)C2 (stereo partly shown) [Example 15]
66

Dear colleague, I am looking for the recorded Emax of the following molecule: CCOC(=O)N1C2CCC1CC(N1CCC[C@@H](NC(=O)c3ccc(F)cc3Cl)C1)C2 (stereo partly shown) [Example 14]
68

Dear colleague, I am looking for the recorded Emax of the following molecule: CCOC(=O)N1C2CCC1CC(N1CCC[C@@H](NC(=O)c3ccccc3)C1)C2 (stereo partly shown) [Example 3]
79

###

target.of.assay: rM1 (Rattus norvegicus)
Construct: host or cells: CHO-K1
assay.info: Calcium mobilization assay in CHO-K1 cells stably expressing rat M1 (low throughput, Flexstation II)
Assay type: cell-based
Param label: returns fulfilled when EC50 < 40 nM, returns not fulfilled otherwise, including exact equality.

Strictly below 40 nM: is that where EC50 of CCOC(=O)N1C2CCC1CC(N1CCC[C@@H](NC(=O)c3ccc(F)cc3)C1)C2 (some centres unmarked) sits?
fulfilled

Strictly below 40 nM: is that where EC50 of CCOC(=O)N1C2CCC1CC(N1CCC[C@@H](NC(=O)c3ccc(F)c(C)c3)C1)C2 (some centres unmarked) sits?
not fulfilled

Strictly below 40 nM: is that where EC50 of CCOC(=O)N1C2CCC1CC(N1CCC[C@@H](NC(=O)c3ccc(F)cc3F)C1)C2 (some centres unmarked) sits?
not fulfilled

Strictly below 40 nM: is that where EC50 of CCOC(=O)N1C2CCC1CC(N1CCC[C@@H](NC(=O)c3cc(F)cc(F)c3)C1)C2 (some centres unmarked) sits?
not fulfilled

Strictly below 40 nM: is that where EC50 of CCOC(=O)N1C2CCC1CC(N1CCC[C@@H](NC(=O)c3cccc(OC)c3)C1)C2 (some centres unmarked) sits?
not fulfilled

Strictly below 40 nM: is that where EC50 of CCOC(=O)N1C2CCC1CC(N1CCC[C@@H](NC(=O)c3ccccc3C)C1)C2 (some centres unmarked) sits?
fulfilled
